target: human 5HT2c receptor (VSV Isoform) (Homo sapiens, UniProt P28335, I156V/I160V/N158S); experiment: cell-based; conditions: 5-HT2c EC50 (hVSV, μM)
Sequence (P28335 33-458 I156V/N158S/I160V limits assumed): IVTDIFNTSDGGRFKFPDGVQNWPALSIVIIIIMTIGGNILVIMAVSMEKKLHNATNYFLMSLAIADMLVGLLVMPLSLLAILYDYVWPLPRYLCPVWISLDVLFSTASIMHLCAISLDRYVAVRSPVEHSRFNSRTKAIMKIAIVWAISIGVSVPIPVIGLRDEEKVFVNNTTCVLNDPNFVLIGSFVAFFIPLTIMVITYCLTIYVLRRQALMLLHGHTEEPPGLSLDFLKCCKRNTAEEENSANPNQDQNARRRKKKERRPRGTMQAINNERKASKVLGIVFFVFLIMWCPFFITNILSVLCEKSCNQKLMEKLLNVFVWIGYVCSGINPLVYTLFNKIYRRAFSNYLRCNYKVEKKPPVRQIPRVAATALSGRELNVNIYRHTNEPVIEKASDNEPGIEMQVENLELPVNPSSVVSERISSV
Kindly supply the reported EC50 values for the records listed here.

# input # query: EC50 of entry CC1c2ccc(OC(F)(F)F)cc2C2CNCC12 (stereo not drawn)
# output > 10 µM

# input Quick one: EC50 for CC1c2cc(Cl)c(Cl)cc2C2CNCC12 (single isomer, unassigned) [26, Enantiomer 1] ?
# output < 1 µM

# input Given the compound CC1c2cc(Cl)c(OCc3ccccc3F)cc2C2CNCC12 (stereo not drawn) , what is its reported EC50?
# output < 10 µM

# input Recorded EC50 for Cc1ccc2c(c1)C1CNCC1C2C (stereo not drawn) , please?
# output < 1 µM

# input Return reported EC50; argument: COc1c(Cl)cc2c(c1OC)C1CNCC1C2C (single isomer, unassigned) [35, Enantiomer 1]
# output < 0.1 µM

# input Given the compound CC1c2cc(Cl)c(Cl)cc2C2CNCC12 (stereo not drawn) [Example 26] , what is its reported EC50?
# output < 0.1 µM

# input Any idea what its EC50 is? The compound is Cc1cc2c(cc1Br)C(C)C1CNCC21 (stereo not drawn)
# output < 1 µM

# input Value lookup for EC50; key = CC1c2cc(F)ccc2C2CNCC12 (stereo not drawn)
# output < 1 µM

# input Could you tell me which EC50 is on file for Cc1cc2c(cc1Br)C1CNCC1C2C (stereo not drawn) ?
# output < 1 µM

# input Data request, read-out EC50, for Cc1ccc2c(c1)C(C)C1CNCC21 (single isomer, unassigned) [15, Enantiomer 2]
# output < 1 µM

# input What measured EC50 goes with CC1c2cc(Cl)c(OCc3cccc(F)c3)cc2C2CNCC12 (stereo not drawn) ?
# output < 10 µM

# input Query: EC50; subject: CC1c2ccc(O)cc2C2CNCC12 (single isomer, unassigned) [2, Enantiomer 2]
# output < 0.1 µM

# input Look at this compound and give its reported EC50. COc1c(Cl)cc2c(c1Cl)C1CNCC1C2C (stereo not drawn) [Example 38]
# output < 0.1 µM

# input # EC50 lookup, item CC1c2cc(Cl)c(OCc3ccccc3)cc2C2CNCC12 (stereo not drawn)
# output < 10 µM

# input Fill blank: measured EC50 of the compound CC1c2cc(Cl)ccc2C2CNCC12 (stereo not drawn) [Example 5] is ____.
# output < 0.1 µM

# input Query (compound): CC1c2ccc(F)cc2C2CNCC12 (stereo not drawn) ; field requested: EC50
# output < 1 µM

# input Name the recorded EC50 for COc1ccc2c(c1OC)C1CNCC1C2C (single isomer, unassigned) [34, Enantiomer 1] .
# output < 1 µM

# input # get_value(readout='EC50', item= COc1cc2c(cc1OC)C1CNCC1C2C (single isomer, unassigned) [36, Enantiomer 1] )
# output > 10 µM

# input Please report the recorded EC50 for Cc1ccc2c(c1)C(C)C1CNCC21 (single isomer, unassigned) [15, Enantiomer 1] .
# output < 0.1 µM

# input I would be grateful if you could share the reported EC50 for CCC1c2ccc(OC)cc2C2CNCC12 (stereo not drawn) .
# output > 10 µM

# input Could you share which EC50 value was measured for CC1c2ccc(O)cc2C2CNCC12 (single isomer, unassigned) [2, Enantiomer 1] ?
# output < 1 µM

# input I am curious: what EC50 value has been reported for CC1c2ccc(OCc3cccc(F)c3)cc2C2CNCC12 (single isomer, unassigned) [45, Enantiomer 2] ?
# output < 10 µM

# input Consider the compound CC1c2ccc(Cl)cc2C2CNCC12 (stereo not drawn) and give its measured EC50.
# output < 10 µM

# input Data request, read-out EC50, for Cc1cc2c(cc1Cl)C(C)C1CNCC21 (single isomer, unassigned) [21, Enantiomer 2]
# output < 0.1 µM

# input Return reported EC50; argument: CC1c2ccc(OCc3ccc(F)cc3)cc2C2CNCC12 (single isomer, unassigned) [46, Enantiomer 2]
# output < 10 µM

# input Field request: EC50 | item: CC1c2cc(Cl)c(OCC3CC3)cc2C2CNCC12 (stereo not drawn)
# output < 1 µM

# input I am curious: what EC50 value has been reported for Cc1cc2c(cc1Cl)C1CNCC1C2C (single isomer, unassigned) [23, Enantiomer 1] ?
# output < 1 µM
